The following compounds are shown together with reported intrinsic clearance, rat liver microsomes values.

The examples below pair each entry with its known result.
{"columns": ["MOLECULAR_STRING", "RESULT"],
 "data": [
  ["Cn1cc(C(=O)N2CCC(c3cc(C(F)(F)F)c4c(n3)CCNC4=O)CC2)ccc1=O", "≤ 10.7 mL/min/kg"],
  ["c1ccc(CC2=NCCN2)cc1", "≤ 10.7 mL/min/kg"],
  ["Cc1nn(-c2ccccn2)c2nc(C3CC3)cc(C(=O)O)c12", "≤ 10.7 mL/min/kg"],
  ["CN(Cc1ccn(-c2ccccc2)n1)C(=O)c1ccc(O)nc1", "≤ 10.7 mL/min/kg"],
  ["Cc1nc2ncc3c(n2n1)CCCC3=O", "≤ 10.7 mL/min/kg"],
  ["COc1ncccc1C(=O)Nc1nc(C)nn1C", "≤ 10.7 mL/min/kg"],
  ["O=C([C@@H]1CCCN1C(=O)NC(c1ccccc1)c1ccccc1)N1CCCCC1", "867 mL/min/kg"],
  ["CNC(=O)c1ccc(N2CCCc3cc(OC)ccc3C2)nn1", "860 mL/min/kg"]
]}

Please look at the following compound next.
### Prompt Give reported intrinsic clearance, rat liver microsomes value for COc1cc(OC)cc(N(CCNC(C)C)c2ccc3ncc(-c4cnn(C)c4)nc3c2)c1
### Response 790 mL/min/kg

----------
MEASUREMENT_KIND: intrinsic clearance, rat liver microsomes (mL/min/kg)

{"columns": ["MOLECULE", "NUMBER"],
 "data": [
  ["CCc1nc2ccccc2n1CC(=O)Nc1ncc(C)s1", 348],
  ["CN(C)CCSc1nnnn1-c1ccc(Br)cc1", 1740]
]}

a: CN(CCOCCOc1ccccc1-c1ccccc1)Cc1ccccc1.O=C(O)C(=O)O
b: CCC(=O)N(C)CC(=O)Nc1cccc(F)c1
c: C[C@@H](C(=O)N1CCCC1)N1CCC(n2c(=O)[nH]c3ccccc32)CC1
d: CCOc1cc(CC(=O)N[C@@H](CC(C)C)c2ccccc2N2CCCCC2)ccc1C(=O)O
### Prompt Exam item: list the entries in increasing order of intrinsic clearance, rat liver microsomes. Please, when replying, give the labels in the order that was requested.
### Response b, c, d, a

I: Cc1ncsc1C(=O)N1CCCCC1c1nc(N(C)C)ncc1-c1cccc(Cl)c1 (stereo unspecified)
II: COc1cc2c(cc1OC)CN(C(=O)C1CCCN(C(=O)Nc3ccccc3)C1)CC2 (stereo unspecified)
### Prompt Min intrinsic clearance, rat liver microsomes? I | II Reply with the label of the item you choose.
### Response II

a: COc1ccc(N)c(OCc2ccccc2)c1
b: CC(=O)c1ccc(OCCCCN2CCCC2)cc1
### Prompt Min intrinsic clearance, rat liver microsomes? a | b Reply with the label of the item you choose.
### Response b

----------
MEASUREMENT_KIND: intrinsic clearance, rat liver microsomes (mL/min/kg)

The examples below pair each entry with its known result.
{"columns": ["COMPOUND", "NUMBER"],
 "data": [
  ["Cc1ccsc1CN(C)C(=O)[C@@H]1CCCN1C(=O)NC(C)C", 355],
  ["Cn1ncc2c1CCc1sc(NC(=O)c3cccnc3)nc1-2", 89.2],
  ["CC(C)(C)c1cc(C(=O)CSc2nnnn2-c2ccccc2)cc(C(C)(C)C)c1O", 55.8],
  ["Cc1cc(C)c2ccc(C(=O)N3CCN(c4nc[nH]n4)CC3)cc2n1", 16.8],
  ["Cc1nccc(-c2cccc(NCC(=O)N3CCCCCCC3)c2)n1", 2050],
  ["Cc1ccccc1-c1nc(Cn2ccnc2C(C)C)c(C)o1", 2720],
  ["C[C@H](NC(=O)CCC(F)(F)F)C(=O)N[C@@H]1C(=O)N(CCO)c2ncccc2-c2ccccc21", 10.8],
  ["Cc1[nH]nc2c1C1(CCCCC1)CC(=O)N2", 45.6],
  ["Cc1cnc(CNCc2cccc3c2OCO3)s1", 204],
  ["Cc1cncc(CN2CCC(=C3c4ccc(Cl)cc4CCc4cccnc43)CC2)c1", 1010]
]}

A: CN(C)c1ccnc(C(=O)Nc2ccnn2-c2ccc(C#N)cc2)c1
B: COc1ccc(CNC(=O)CCSc2nc3c(=O)n(C)c(=O)n(C)c3n2C)cc1
C: O=C(CN1CCCC(c2cccc(Cc3cccc(F)c3)n2)C1)N1CCCC1 (configuration not stated)
D: CN1C(=O)COc2cc(NC(=O)C3CC=CC3)ccc21
### Prompt Exam item: list the entries in increasing order of intrinsic clearance, rat liver microsomes. Please, when replying, give the labels in the order that was requested.
### Response D, B, A, C
(D: 92.7 mL/min/kg, B: 247 mL/min/kg, A: 446 mL/min/kg, C: 1140 mL/min/kg)

I: NC(=O)CN1CCC(CCc2ccccc2)CC1
II: CN(C)CCNc1c2c(c(C#N)c3nc4ccccc4n13)CCCC2
III: Cc1ccc(CCNC(=O)N2CC(C)(C)OC(C)(C)C2)cn1
### Prompt Kindly order the items shown according to intrinsic clearance, rat liver microsomes, from the highest value down. Please, when replying, give the labels in the order that was requested.
### Response I, II, III
(I: 461 mL/min/kg, II: 270 mL/min/kg, III: 76.4 mL/min/kg)

I: CC(C)n1c(=O)cc(N[C@@H](C)c2ccccc2)[nH]c1=O
II: Fc1cccc(OC2CCN(Cc3nc4ccccc4[nH]3)CC2)c1
III: CN(CC1(CO)CCC1)C(=O)CCN1CCCCC1=O
IV: COc1nccnc1N1CCC(C(=O)Nc2cccc(F)c2)CC1
### Prompt Kindly order the items shown according to intrinsic clearance, rat liver microsomes, from the highest value down. Please, when replying, give the labels in the order that was requested.
### Response II, IV, III, I
(II: 1960 mL/min/kg, IV: 298 mL/min/kg, III: 46 mL/min/kg, I: 30.4 mL/min/kg)

----------
MEASUREMENT_KIND: intrinsic clearance, rat liver microsomes

The examples below pair each entry with its known result.
{"columns": ["MOLECULAR_STRING", "RESULT"],
 "data": [
  ["Cc1nc(CS(C)(=O)=O)sc1C(=O)Nc1ccccc1", "≤ 10.7 mL/min/kg"],
  ["CC(C)(C)c1nc(O)c2nnn(C3CCNCC3)c2n1", "≤ 10.7 mL/min/kg"]
]}

Please look at the following compound next.
### Prompt Give reported intrinsic clearance, rat liver microsomes value for CC(C)(C)CC(=O)N1CCC(OCCCN)CC1
### Response ≤ 10.7 mL/min/kg

----------
MEASUREMENT_KIND: intrinsic clearance, rat liver microsomes (mL/min/kg)

I: Cc1nnc(COc2cccc(-n3ccnc3)c2)n1C1CC1
II: CC(C)c1noc(CN(C)C2CCCC2)n1
III: Cc1nc2cc(NC(=O)Cc3c(C)nc4ccccc4c3C)ccc2o1
### Prompt List the items above again, this time ordered by increasing intrinsic clearance, rat liver microsomes. Please, when replying, give the labels in the order that was requested.
### Response I, III, II
(I: 16.6 mL/min/kg, III: 254 mL/min/kg, II: 657 mL/min/kg)

----------
MEASUREMENT_KIND: intrinsic clearance, rat liver microsomes (mL/min/kg)

A: NC[C@@](O)(c1ccc(Cl)cc1)c1ccc(-c2cn[nH]c2)cc1
B: COc1ccccc1CNC(=O)c1cnc(C2CCN(C(=O)C(C)(C)C)CC2)nc1C
C: COc1cc(Nc2c(C#N)cnc3cc(OC)c(OC)cc23)c(Cl)cc1Cl
D: N#Cc1ccc2[nH]c(O)c(-c3ccc(CN4CCOCC4)cn3)c2c1
E: COc1cc(C)nc(N2CCN(c3ccc4ccccc4n3)CC2)n1
### Prompt Rank descending by intrinsic clearance, rat liver microsomes. Please, when replying, give the labels in the order that was requested.
### Response B, E, C, D, A

a: COc1cc2c(cc1OC)-c1cc3ccc(OC)c(OC)c3c[n+]1CC2
b: c1cc2cc[nH]c2c(CC2CN(C3CCCC3)C2)n1
c: Cn1c(CNC(=O)Cc2cccc3ccccc23)nc2ccccc21
d: CC(C)n1cc(CN2CCC(c3nc(N(C)C)no3)CC2)cn1
### Prompt Kindly order the items shown according to intrinsic clearance, rat liver microsomes, from the highest value down. Please, when replying, give the labels in the order that was requested.
### Response c, d, b, a
(c: 1590 mL/min/kg, d: 179 mL/min/kg, b: 80.5 mL/min/kg, a: 23.4 mL/min/kg)

A: Cc1cc(CN(C)Cc2cscn2)no1
B: Cc1ccc(Cl)c(OC[C@@]2(O)CN(C3CCCC3)CC[C@@H]2O)c1
### Prompt Between these two entries, A and B , state which has the higher intrinsic clearance, rat liver microsomes. Reply with the label of the item you choose.
### Response B
(B: 2250 mL/min/kg, A: 24.9 mL/min/kg)

----------
MEASUREMENT_KIND: intrinsic clearance, human liver microsomes (mL/min/kg)

{"columns": ["MOLECULAR_STRING", "NUMBER"],
 "data": [
  ["Cc1ccc(O)c(CN2CCC(c3nc4ccccc4o3)CC2)n1", 22.2],
  ["CCc1ncc2c(n1)CN(c1ccnc(-c3ccccc3)n1)CC2", 36.1],
  ["CC(C)(C)c1cc(NS(=O)(=O)c2c(Cl)cccc2Cl)cc(C(C)(C)C)c1", 89.6],
  ["Cc1ccc(-c2nc(CN3CCOCC3)n(Cc3ccc(F)cc3)n2)o1", 98.3],
  ["O=C(Nc1ccc2ccccc2n1)c1ccc(N2CCOC2=O)cc1", 5.17]
]}

I: COc1ccc(-c2ccc(Cn3nc(C)cc3C)cn2)cc1
II: CN(C)Cc1cccc(N/C(=C2\C(=O)Nc3cc(C(=O)N(C)C)ccc32)c2ccccc2)c1
### Prompt Between these two entries, I and II , state which has the higher intrinsic clearance, human liver microsomes. Reply with the label of the item you choose.
### Response II
(II: 76.2 mL/min/kg, I: 23.7 mL/min/kg)

a: CCOc1cccc(C(=O)Nc2ccc3c(c2)CCC(=O)N3C)c1
b: CN1CCc2ncnc(N3CCCN(c4nccs4)CC3)c2C1
### Prompt Min intrinsic clearance, human liver microsomes? a | b Reply with the label of the item you choose.
### Response a
(a: 12.2 mL/min/kg, b: 23.3 mL/min/kg)

1: O=C(CCc1ccccc1)N1CCC(c2cccc(Cc3ccc(F)cc3)n2)CC1
2: COc1ccc(COc2ccc(Cc3cnc(N)nc3N)cc2OC)cc1
3: Cc1c(C(=O)N2CCC(C(=O)Nc3ccc4c(c3)OCO4)CC2)oc2c(F)cccc12
### Prompt Kindly order the items shown according to intrinsic clearance, human liver microsomes, from the highest value down. Please, when replying, give the labels in the order that was requested.
### Response 1, 3, 2

A: Cc1ccc(-c2noc(CCC(=O)N3CCCC3(C)C)n2)cc1F
B: COc1ccc(/C=C/C(=O)c2c(C)nc3ccccc3c2N)c(OC)c1
C: Cc1cc(Nc2ccc3c(c2)oc(=O)n3C)nc(C2CC2)n1
### Prompt Exam item: list the entries in increasing order of intrinsic clearance, human liver microsomes. Please, when replying, give the labels in the order that was requested.
### Response C, B, A

Hello, the source for this data is the Biogen ADME set (Fang et al. 2023), in case you need it.
